Each item that follows carries a reported cAMP Emax (1.0% HSA).
target: human GLP-1 receptor (human, UniProt P43220 24-463)
test_method_notes: cell-based or functional assay
assay_readout: cAMP Emax (1.0% HSA) (%)

binder="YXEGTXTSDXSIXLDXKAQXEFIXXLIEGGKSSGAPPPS (Aib2, αMeF(2F)6, Ac4c10, αMeL13, Orn16, Aib20, D-Glu24, αMeY25; acylated K17, K31 (groups as in name); C-terminal amide)" numeric_readout=84
binder="YXEGTXTSDXSIXLDXKAQXEFIGXLIEGGKSSGAPPPS (Aib2, αMeF(2F)6, 4Pal10, αMeL13, Orn16, Aib20, αMeY25; acylated K17, K31 (groups as in name); C-terminal amide)" numeric_readout=95.8
binder="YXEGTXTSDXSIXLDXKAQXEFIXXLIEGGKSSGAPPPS (Aib2, αMeF(2F)6, Ac5c10, αMeL13, Orn16, Aib20, D-Glu24, αMeY25; acylated K17, K31 (groups as in name); C-terminal amide)" numeric_readout=89.3
binder="YXEGTXTSDXGIXLDXKAQXEFIXXLIEGGKSSGAPPPS (Aib2, αMeF(2F)6, 4Pal10, αMeL13, Orn16, Aib20, D-Glu24, αMeY25; acylated K17, K31 (groups as in name); C-terminal amide)" numeric_readout=123
binder="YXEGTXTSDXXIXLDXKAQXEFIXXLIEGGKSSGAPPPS (Aib2, αMeF(2F)6, 4Pal10, Tle11, αMeL13, Orn16, Aib20, D-Glu24, αMeY25; acylated K17, K31 (groups as in name); C-terminal amide)" numeric_readout=109
binder="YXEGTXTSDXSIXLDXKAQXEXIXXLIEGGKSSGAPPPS (Aib2, αMeF(2F)6, 4Pal10, αMeL13, Orn16, Aib20, 1Nal22, D-Glu24, αMeY25; acylated K17, K31 (groups as in name); C-terminal amide)" numeric_readout=93
binder="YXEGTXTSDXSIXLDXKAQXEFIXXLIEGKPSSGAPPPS (Aib2, αMeF(2F)6, 4Pal10, αMeL13, Orn16, Aib20, D-Glu24, αMeY25; acylated K17, K30 (groups as in name); C-terminal amide)" numeric_readout=103
binder="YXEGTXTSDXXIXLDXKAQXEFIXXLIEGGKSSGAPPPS (Aib2, αMeF(2F)6, 4Pal10, Dap11, αMeL13, Orn16, Aib20, D-Glu24, αMeY25; acylated K17, K31 (groups as in name); C-terminal amide)" numeric_readout=100
binder="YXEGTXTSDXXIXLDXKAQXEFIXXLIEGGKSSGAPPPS (Aib2, αMeF(2F)6, 4Pal10, Aib11, αMeL13, Orn16, Aib20, D-Glu24, αMeY25; acylated K17, K31 (groups as in name); C-terminal amide)" numeric_readout=108
binder="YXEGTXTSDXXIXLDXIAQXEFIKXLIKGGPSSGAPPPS (Aib2, αMeF(2F)6, 4Pal10, αMeS11, αMeL13, Orn16, Aib20, αMeY25; acylated K24, K28 (groups as in name); C-terminal amide)" numeric_readout=117
binder="YXEGTXTSDXXIXLDXIAQXKFIKXLIEGGPSSGAPPPS (Aib2, αMeF(2F)6, 4Pal10, αMeS11, αMeL13, Orn16, Aib20, αMeY25; acylated K21, K24 (groups as in name); C-terminal amide)" numeric_readout=107
